Origin of values: patent US20060205743A1

# measured_on: MAPKAP-K2 (Homo sapiens, UniProt P49137)
# Sequence (P49137 whole entry): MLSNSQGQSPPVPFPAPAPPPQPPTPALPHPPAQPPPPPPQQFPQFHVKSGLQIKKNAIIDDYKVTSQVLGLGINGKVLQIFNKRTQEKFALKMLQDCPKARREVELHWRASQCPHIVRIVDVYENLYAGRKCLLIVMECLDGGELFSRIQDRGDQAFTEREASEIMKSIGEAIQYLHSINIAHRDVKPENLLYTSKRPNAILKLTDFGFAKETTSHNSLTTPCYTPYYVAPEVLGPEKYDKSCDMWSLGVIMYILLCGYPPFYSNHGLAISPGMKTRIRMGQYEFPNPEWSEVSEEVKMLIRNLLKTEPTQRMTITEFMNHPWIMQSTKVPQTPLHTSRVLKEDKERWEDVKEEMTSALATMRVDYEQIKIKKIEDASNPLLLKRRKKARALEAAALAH
# method: MAPKAP-Kinase 2 Assay (33P-ATP peptide phosphorylation, filter plate)
# Format: biochemical
# Design: key: +: active; ++: more active; +++: very active
# settings: assays conducted at typically 1-100 μM
reported_metric: MAPKAP-K2 activity

Below, each entry is followed by its recorded MAPKAP-K2 activity result.
1. N[C@H]1CC[C@H](Nc2cc(Nc3ccc(Cl)cc3)n3nccc3n2)CC1 [Compound 12] = +++
2. NC1CCC(Nc2cc(Nc3ccccc3C(F)(F)F)n3nccc3n2)CC1 (stereo not drawn) [Compound 93] = ++
3. N[C@H]1CC[C@H](Nc2cc(Nc3cc(Cl)ccc3Cl)n3nccc3n2)CC1 [Compound 68] = +++
4. CCC(CC)CNC1CCC(Nc2cc(Nc3ccc(F)c(Cl)c3)n3nccc3n2)CC1 (stereo not drawn) [Compound 130] = +
5. COc1ccc(Nc2cc(N[C@H]3CC[C@H](N)CC3)nc3ccnn23)cc1 [Compound 17] = +++
6. N[C@H]1CC[C@H](Nc2cc(Nc3ccccc3F)n3nccc3n2)CC1 [Compound 66] = +++

Give MAPKAP-K2 activity for each listed item.
1. O=C(Nc1ccccc1)NC1CCC(Nc2cc(Nc3ccc(F)c(Cl)c3)n3nccc3n2)CC1 (stereo not drawn) [Compound 49]
2. COc1ccc(Cl)c(Nc2cc(NC3CCC(N)CC3)nc3ccnn23)c1 (stereo not drawn) [Compound 99]
3. CC(C)Oc1ccc(Nc2cc(NC3CCC(N)CC3)nc3ccnn23)c(F)c1 (stereo not drawn) [Compound 113]
4. N[C@H]1CC[C@H](Nc2cc(Nc3ccccc3Cl)n3nccc3n2)CC1 [Compound 13]

1. +
2. +++
3. +++
4. +++

For every listed record, write down its MAPKAP-K2 activity.
1. CCOc1ccccc1Nc1cc(NC2CCC(N)CC2)nc2ccnn12 (stereo not drawn) [Compound 54]
2. Cc1ccsc1CNc1cc(N[C@H]2CC[C@H](N)CC2)nc2ccnn12 [Compound 7]

1: ++; 2: ++
